experimental.system: Plasmodium falciparum malate:quinone oxidoreductase (PfMQO) (Plasmodium falciparum, UniProt C6KT09)
Construct: PfMQO-membrane fraction from PfMQO-expressing recombinant Escherichia coli
Sequence (C6KT09 1-521): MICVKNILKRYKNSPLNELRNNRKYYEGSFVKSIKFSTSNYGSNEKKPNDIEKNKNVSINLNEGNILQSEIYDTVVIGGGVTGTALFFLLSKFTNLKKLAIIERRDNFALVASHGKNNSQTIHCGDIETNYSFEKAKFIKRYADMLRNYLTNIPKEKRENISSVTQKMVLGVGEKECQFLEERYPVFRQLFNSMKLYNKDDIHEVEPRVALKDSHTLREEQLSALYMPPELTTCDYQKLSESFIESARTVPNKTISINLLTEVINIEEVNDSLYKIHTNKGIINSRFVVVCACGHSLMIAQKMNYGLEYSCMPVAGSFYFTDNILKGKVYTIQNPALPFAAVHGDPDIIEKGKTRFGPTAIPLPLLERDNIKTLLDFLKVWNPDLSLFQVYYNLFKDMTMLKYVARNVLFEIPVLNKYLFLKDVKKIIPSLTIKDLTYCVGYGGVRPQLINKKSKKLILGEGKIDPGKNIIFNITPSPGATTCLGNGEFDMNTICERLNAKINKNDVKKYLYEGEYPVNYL
assay.remarks: DCIP-reduction enzyme assay (A600, malate/decylubiquinone) with recombinant PfMQO membrane fraction
assay.readout: IC50 (µM)
Please reply with the bare figure in µM and do not write the unit itself.

q: Give the reported value of IC50 for this record: C/C=C(\C)c1c(Cl)c(O)c(C)c2c1Oc1c(Cl)c(O)c(Cl)c(C)c1C(=O)O2 [Fr10, nornidulin]
a: 51
